The entries below are paired with their reported GI50.
Test system: SK-OV-3
Method: Growth inhibition of human SKOV3 cells by sulforhodamine B assay
Type: functional
State just the number; it will be interpreted in nM.

COc1ccc(/C=C\c2cc(OC)c(OC)c(OC)c2)cc1O : 0.42
COc1ccc(/C=C\c2cc(OC)c(OC)c(OC)c2)c(O)c1O : 38
COc1cc(C2=CCCCc3c2ccc(OC)c3[N+](=O)[O-])cc(OC)c1OC : 152

--- query ---
Param item = "COc1ccc2c(c1N)CCCC=C2c1cc(OC)c(OC)c(OC)c1" ; retrieve measured GI50.
0.0329
